- Assay protocol: Pharmacokinetics in Sprague-Dawley rats
- Format: in vivo
- Particulars: male, Sprague-Dawley, rat, plasma, oral, 20 mg/kg, Supplementary Figure 7 panel b; 6 h; animals 1-3; read-out: Plasma Concentraion

Molecule	Measurement units	concentration at 6 h
CC(C)C(=O)Nc1nc2cc(-c3ccc4c(c3)c(C(=O)NC(C)c3ccccc3)cn4C)ccn2n1 (stereo not shown)	ng/mL	11.3

###

Each item that follows carries a reported pIC50.
- Test target: RIPK1 (Homo sapiens)
- Sequence (Q13546 whole entry): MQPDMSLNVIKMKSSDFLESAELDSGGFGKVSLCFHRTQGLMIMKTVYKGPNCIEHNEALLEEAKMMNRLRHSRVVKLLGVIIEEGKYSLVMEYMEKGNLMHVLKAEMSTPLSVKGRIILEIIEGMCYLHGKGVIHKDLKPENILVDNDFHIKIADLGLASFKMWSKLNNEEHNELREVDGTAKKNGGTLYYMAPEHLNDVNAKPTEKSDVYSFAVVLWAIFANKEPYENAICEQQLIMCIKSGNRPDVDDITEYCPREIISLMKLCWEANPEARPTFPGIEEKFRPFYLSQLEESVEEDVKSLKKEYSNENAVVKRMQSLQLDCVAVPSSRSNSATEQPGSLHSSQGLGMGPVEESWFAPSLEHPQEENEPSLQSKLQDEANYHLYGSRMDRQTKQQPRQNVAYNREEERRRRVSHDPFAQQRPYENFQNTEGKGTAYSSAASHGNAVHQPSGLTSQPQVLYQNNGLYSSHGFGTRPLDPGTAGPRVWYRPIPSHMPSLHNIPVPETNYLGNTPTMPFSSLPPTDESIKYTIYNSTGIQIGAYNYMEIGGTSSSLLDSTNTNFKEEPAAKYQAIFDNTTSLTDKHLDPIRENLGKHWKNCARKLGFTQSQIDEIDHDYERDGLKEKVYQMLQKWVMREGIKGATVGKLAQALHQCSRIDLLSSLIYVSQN
- Assay protocol: RIPK1 kinase assay, 33P-labeled ATP assay at Eurofins
- Type: biochemical
- Particulars: read-out: RIPK1 IC50
pIC50: −log10 of the molar value.

Compound	Test target	Result modifier	pIC50
CCOc1ccccc1CNCC(=O)c1cn2ccc(-c3ccn4nc(NC(=O)C(C)C)nc4c3)cc2n1 [RI-753]	RIPK1 (Homo sapiens)	=	6.33
CC(NC(=O)c1cn(C)c2ccc(-c3ccn4nc(NC(=O)C5CC5)cc4n3)cc12)c1ccc(F)cc1 (stereo not shown) [RI-1155]	RIPK1 (Homo sapiens)	=	7.31
Cc1cc(Oc2ccc(F)c(C(=O)NCc3ccc(F)cc3)n2)cc(C(=O)NCc2ccc(Br)s2)c1 [RI-539]	RIPK1 (Homo sapiens)	<	5.00
CC(NC(=O)c1cn(C)c2ccc(-c3ccn4nc(NC(=O)C5CC5)cc4n3)cc12)c1ccccc1 (stereo not shown) [RI-056]	RIPK1 (Homo sapiens)	=	7.19
CNC(=O)c1n[nH]c2cc(-c3ccc(C(=O)NCc4ccc(OCCC5CC5)cc4)nc3)ccc12 [RI-413]	RIPK1 (Homo sapiens)	<	5.00
CC(NCC(=O)Nc1cccc(-c2cc(C(=O)NCc3cccc(F)c3)n(C)c2)n1)c1ccccc1F (stereo not shown) [RI-470]	RIPK1 (Homo sapiens)	<	5.00
CC(=O)Nc1cn2cc(-c3ccc(CNC(=O)c4cc(F)ccc4OCC4CCCC4)nc3)ccc2n1 [RI-985]	RIPK1 (Homo sapiens)	<	5.00
